Source listed as ChEMBL document CHEMBL1152129.

Biological target: Amine oxidase [flavin-containing] B (Homo sapiens)
Sequence (P27338 whole entry): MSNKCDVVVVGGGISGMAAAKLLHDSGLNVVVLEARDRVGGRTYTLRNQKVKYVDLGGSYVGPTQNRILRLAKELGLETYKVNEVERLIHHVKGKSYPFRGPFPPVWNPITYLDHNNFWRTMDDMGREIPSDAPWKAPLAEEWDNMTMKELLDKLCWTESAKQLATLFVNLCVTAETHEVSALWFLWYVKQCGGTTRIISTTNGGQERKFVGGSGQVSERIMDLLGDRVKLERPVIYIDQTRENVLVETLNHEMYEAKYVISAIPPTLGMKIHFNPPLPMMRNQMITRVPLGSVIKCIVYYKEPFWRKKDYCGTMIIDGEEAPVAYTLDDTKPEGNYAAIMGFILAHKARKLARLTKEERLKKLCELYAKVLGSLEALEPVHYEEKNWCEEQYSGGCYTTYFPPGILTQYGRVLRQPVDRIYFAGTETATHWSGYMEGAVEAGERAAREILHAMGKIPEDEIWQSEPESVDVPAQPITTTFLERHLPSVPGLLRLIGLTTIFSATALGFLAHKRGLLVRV
Test: Inhibition of human recombinant MAOB at 100 uM by fluorimetric method
Readout: Activity

>>> result("COc1c(O)ccc2cc(N)c(=O)oc12")
"Not Active"
>>> result("Cc1ncc([N+](=O)[O-])n1CCO [METRONIDAZOLE]")
"Not Active"
>>> result("CC[C@H](c1ccc(OP(=O)(O)O)cc1)[C@@H](CC)c1ccc(OP(=O)(O)O)cc1 [HEXESTROL DIPHOSPHATE]")
"Not Active"
>>> result("CCC1(C)CC(=O)NC1=O (centres undefined) [ETHOSUXIMIDE]")
"Not Active"
